- TARGET_UNDER_TEST: human Thyroid hormone Receptor beta (TRb), THRB (gene 7068) (UniProt P10828)
- Sequence (P10828 whole entry, looked up): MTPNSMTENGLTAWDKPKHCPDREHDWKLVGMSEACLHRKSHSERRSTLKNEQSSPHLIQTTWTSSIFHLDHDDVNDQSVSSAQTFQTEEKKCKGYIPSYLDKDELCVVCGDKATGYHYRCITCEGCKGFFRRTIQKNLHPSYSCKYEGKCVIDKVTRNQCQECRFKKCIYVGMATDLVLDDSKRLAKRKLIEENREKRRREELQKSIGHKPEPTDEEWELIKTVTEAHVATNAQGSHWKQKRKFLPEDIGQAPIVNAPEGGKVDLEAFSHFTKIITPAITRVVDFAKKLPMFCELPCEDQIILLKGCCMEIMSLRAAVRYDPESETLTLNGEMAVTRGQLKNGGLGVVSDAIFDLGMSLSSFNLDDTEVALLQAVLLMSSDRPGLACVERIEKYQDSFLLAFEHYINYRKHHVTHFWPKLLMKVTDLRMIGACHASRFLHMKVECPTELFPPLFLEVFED
- PROCEDURE_DETAILS: ATG_hTRb_XSP2: Attagene TRANS-FACTORIAL Multi-Species (XSP2) HepG2 Assay for human Thyroid hormone Receptor beta (TRb) (AID 2283840);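 further: actives raise reporter mRNA so potency reflects agonist-like gain of signal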
Records with an inconclusive call do not appear. Activity calls are given as the source filed them. How the source made its calls: active means hit-call score of the fitted dose curve at least 0.9, where 1 is the maximum; inconclusive means response in the unintended direction; inactive means score below 0.9.
Respond with a class label; see active, inactive

Observe how each entry below is paired with its result.
COMPOUND: CC1(C)C(C=C(Cl)Cl)C1C(=O)OCc1cccc(Oc2ccccc2)c1 (stereo unspecified)
LABEL_VALUE: active
--
COMPOUND: CC(=O)S[C@@H]1CC2=CC(=O)CC[C@]2(C)[C@H]2CC[C@@]3(C)[C@@H](CC[C@@]34CCC(=O)O4)[C@H]12
LABEL_VALUE: inactive

Ask | Identify the outcome logged in this assay for the compound shown: CC(C)CCCCCCc1ccc(O)cc1
Reply | inactive

Ask | Same thing, different compound: CSC(=O)c1cccc2nnsc12
Reply | inactive

Ask | Same thing, different compound: C#C[C@]1(O)CC[C@H]2[C@@H]3CCC4=CC(=O)CC[C@@H]4[C@H]3CC[C@@]21CC
Reply | active

Ask | Same thing, different compound: O=C(c1ccc(O)cc1O)c1ccc(O)cc1O
Reply | inactive

====

- TARGET_UNDER_TEST: chicken Estrogen Receptor (ERa), ESR1 (gene 396099) (UniProt P06212)
- Sequence (P06212 whole entry, looked up): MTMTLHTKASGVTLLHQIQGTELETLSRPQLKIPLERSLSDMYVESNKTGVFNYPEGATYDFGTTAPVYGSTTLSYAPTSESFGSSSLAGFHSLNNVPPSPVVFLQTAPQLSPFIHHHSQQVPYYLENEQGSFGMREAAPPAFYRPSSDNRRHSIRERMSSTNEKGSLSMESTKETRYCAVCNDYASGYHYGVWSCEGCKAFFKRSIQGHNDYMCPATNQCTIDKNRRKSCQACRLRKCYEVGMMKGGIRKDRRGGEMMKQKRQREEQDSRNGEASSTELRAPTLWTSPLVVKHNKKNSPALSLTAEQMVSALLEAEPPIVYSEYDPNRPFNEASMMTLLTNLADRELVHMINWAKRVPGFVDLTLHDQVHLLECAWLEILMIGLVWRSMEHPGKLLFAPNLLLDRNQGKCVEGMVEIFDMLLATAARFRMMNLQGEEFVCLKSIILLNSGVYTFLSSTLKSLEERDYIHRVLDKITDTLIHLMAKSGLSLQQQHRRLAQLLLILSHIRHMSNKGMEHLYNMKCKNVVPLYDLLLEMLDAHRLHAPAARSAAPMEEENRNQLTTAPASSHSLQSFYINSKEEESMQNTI
- PROCEDURE_DETAILS: ATG_chERa_XSP2: Attagene TRANS-FACTORIAL Multi-Species (XSP2) HepG2 Assay for chicken Estrogen Receptor (ERa) (AID 2283817);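 further: actives raise reporter signal above DMSO so AC50 reflects ER activation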
Inconclusive results are not listed. Activity calls are given as the source filed them. How the source made its calls: active means hit-call score of the fitted dose curve at least 0.9, where 1 is the maximum; inconclusive means response in the unintended direction; inactive means score below 0.9.
Respond with a class label; see active, inactive

Observe how each entry below is paired with its result.
COMPOUND: CC(C)CCCCCCc1ccc(O)cc1
LABEL_VALUE: active
//
COMPOUND: CCCCC(CC)COC(=O)c1ccccc1C(=O)O (configuration not stated)
LABEL_VALUE: active
//
COMPOUND: O=C(c1ccc(O)cc1O)c1ccc(O)cc1O
LABEL_VALUE: active
//
COMPOUND: CC1(C)C(C=C(Cl)Cl)C1C(=O)OCc1cccc(Oc2ccccc2)c1 (configuration not stated)
LABEL_VALUE: active
//
COMPOUND: CCCCC(CC)CN1C(=O)C2C3C=CC(C3)C2C1=O (configuration not stated)
LABEL_VALUE: inactive
//
COMPOUND: CC(=O)S[C@@H]1CC2=CC(=O)CC[C@]2(C)[C@H]2CC[C@@]3(C)[C@@H](CC[C@@]34CCC(=O)O4)[C@H]12
LABEL_VALUE: inactive

Could you now consider this next compound?
Ask | Identify the outcome logged in this assay for the compound shown: C=CCOC(Cn1ccnc1)c1ccc(Cl)cc1Cl (configuration not stated)
Reply | inactive

====

- Read-out: Cytochrome P450 3A4 (Homo sapiens)
- PROCEDURE_DETAILS: CLD_CYP3A4_48hr: CellzDirect (CLD) Gene Expression Assay for xenobiotic metabolism (CYP3A4) at 48 hours (AID 2283698)
Results filed as inconclusive are left out. Activity calls are given as the source filed them. The calls were made as follows: active = hit-call score of the fitted dose curve at least 0.9, where 1 is the maximum; inconclusive = response in the unintended direction; inactive = score below 0.9.
MEASURED_ATTRIBUTE: AC50

Below: 4 compounds and their reported AC50.
COMPOUND: COC(=O)CSc1cc(N=c2sc(=O)n3n2CCCC3)c(F)cc1Cl
MEASURED_ATTRIBUTE: AC50
MEASURED_VALUE: 4.08 µM (active)
--
COMPOUND: S=C([S-])NCCNC(=S)[S-].[Mn+2]
MEASURED_ATTRIBUTE: AC50
MEASURED_VALUE: inactive
--
COMPOUND: CCCCC(CC)CN1C(=O)C2C3C=CC(C3)C2C1=O (stereo unspecified)
MEASURED_ATTRIBUTE: AC50
MEASURED_VALUE: 20 µM (active)
--
COMPOUND: CC1(C)C(C=C(Cl)Cl)C1C(=O)OCc1cccc(Oc2ccccc2)c1 (stereo unspecified)
MEASURED_ATTRIBUTE: AC50
MEASURED_VALUE: inactive

Ask | Return reported AC50; argument: CCCCOC(=O)[C@@H](C)Oc1ccc(Oc2ccc(C(F)(F)F)cn2)cc1
Reply | inactive

Ask | Same thing, different compound: CSC(=O)c1cccc2nnsc12
Reply | inactive

====

- System: Sodium/Iodide Symporter (NIS), SLC5A5 (gene 6528)
- PROCEDURE_DETAILS: CPHEA_Stoker_NIS_Inhibition_RAIU: CPHEA's Radioactive Iodide Uptake (RAIU) Assay for Sodium/Iodide Symporter (NIS) Inhibition, Stoker and Laws Labs (AID 2283841)
Inconclusive results are not listed. Calls of active or inactive are those of the source. The calls were made as follows: active = hit-call score of the fitted dose curve at least 0.9, where 1 is the maximum; inconclusive = response in the unintended direction; inactive = score below 0.9.
Respond with a class label; see yes for active, no for inactive

Observe how each entry below is paired with its result.
COMPOUND: CCCCOC(=O)C(C)Oc1ccc(Oc2ccc(C(F)(F)F)cn2)cc1 (configuration not stated)
TARGET_UNDER_TEST: Sodium/Iodide Symporter (NIS), SLC5A5 (gene 6528)
LABEL_VALUE: no
//
COMPOUND: CC(C)CCCCCCc1ccc(O)cc1
TARGET_UNDER_TEST: Sodium/Iodide Symporter (NIS), SLC5A5 (gene 6528)
LABEL_VALUE: no
//
COMPOUND: C=CCOC(Cn1ccnc1)c1ccc(Cl)cc1Cl (configuration not stated)
TARGET_UNDER_TEST: Sodium/Iodide Symporter (NIS), SLC5A5 (gene 6528)
LABEL_VALUE: no

Could you now consider this next compound?
Ask | Identify the outcome logged in this assay for the compound shown: O=C(O)c1ccccc1
Reply | no

====

- PROCEDURE_DETAILS: CCTE_Simmons_CellTiterGLO_HEK293T: Viability Assessment in CCTE's Assays for Thyroperoxidase (TPO) Inhibition, Simmons Lab (AID 2283665);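 on AC50: cells exposed to compound for 24 h before readout; actives reduce ATP signal below DMSO vehicle meaning cytotoxicity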
Inconclusive results are not listed. Calls of active or inactive are those of the source. Rule for the calls: active = hit-call score of the fitted dose curve at least 0.9, where 1 is the maximum; inconclusive = response in the unintended direction; inactive = score below 0.9.
MEASURED_ATTRIBUTE: AC50

MOLECULE: CCCCOCCOCCOCc1cc2c(cc1CCC)OCO2
AC50: inactive

MOLECULE: CCOC(=O)C(C)Oc1ccc(Oc2nc3ccc(Cl)cc3o2)cc1 (stereo unspecified)
AC50: inactive

MOLECULE: CSC(=O)c1cccc2nnsc12
AC50: inactive

MOLECULE: Oc1ccc(C(c2ccc(O)cc2)C(Cl)(Cl)Cl)cc1
AC50: 28.8 µM (active)

MOLECULE: O=C(Nc1ccc([N+](=O)[O-])cc1Cl)c1cc(Cl)ccc1O
AC50: 5.34 µM (active)

Attention now shifts to the item below.
Ask | Return reported AC50; argument: O=C(c1ccc(O)cc1O)c1ccc(O)cc1O
Reply | inactive

====

- TARGET_UNDER_TEST: Hepatocyte nuclear factor 6 (Homo sapiens)
- PROCEDURE_DETAILS: ATG_HNF6_CIS: Attagene CIS-FACTORIAL HepG2 Assay for human Hepatocyte Nuclear Factor 6 (HNF6) (AID 2282952)
- EXPERIMENTAL_CONDITIONS: HepG2 Attagene cis-factorial HNF6 reporter transcription; actives raise or lower the signal
Activity calls are given as the source filed them. Rule for the calls: active = hit-call score of the fitted dose curve at least 0.9, where 1 is the maximum; inactive = score below 0.9.
Respond with a class label; see 1 for active, 0 for inactive

MOLECULE: CCSC(=O)N(CC(C)C)CC(C)C
TARGET_UNDER_TEST: Hepatocyte nuclear factor 6 (Homo sapiens)
LABEL_VALUE: 0

Ask | Identify the outcome logged in this assay for the molecule shown: CCOC(=O)C(C)Oc1ccc(Oc2cnc3cc(Cl)ccc3n2)cc1 (stereo unspecified)
Reply | 0

Ask | Same thing, different molecule: CN(C)C(=O)Nc1ccc(Cl)c(Cl)c1
Reply | 0

Ask | Same thing, different molecule: COC(=O)c1c(Cl)nn(C)c1S(=O)(=O)NC(=O)Nc1nc(OC)cc(OC)n1
Reply | 0

Ask | Same thing, different molecule: COC(=O)c1ccc(I)cc1S(=O)(=O)NC(=O)Nc1nc(C)nc(OC)n1
Reply | 0

Ask | Same thing, different molecule: CCCN(CCC)c1c([N+](=O)[O-])cc(C(F)(F)F)c(N)c1[N+](=O)[O-]
Reply | 1

====

- PROCEDURE_DETAILS: APR_HepG2_P-H2AX_24hr: Apredica 24-hour HepG2 Assay for H2AX Phosphorylation (AID 2282920)
- EXPERIMENTAL_CONDITIONS: high-content imaging, actives raise or lower the signal
Active and inactive are the calls of the source. Rule for the calls: active = hit-call score of the fitted dose curve at least 0.9, where 1 is the maximum; inactive = score below 0.9.
Respond with a class label; see 1.0 = active, 0.0 = inactive

COMPOUND: COCCO
LABEL_VALUE: 0.0

Ask | Identify the outcome logged in this assay for the compound shown: CCCCCOC(=O)COc1cc(N2C(=O)C3=C(CCCC3)C2=O)c(F)cc1Cl
Reply | 1.0

Ask | Same thing, different compound: CCCOC(=O)c1ccc(C(=O)OCCC)nc1
Reply | 0.0

Ask | Same thing, different compound: N[C@@H](Cc1cc(I)c(Oc2ccc(O)c(I)c2)c(I)c1)C(=O)O
Reply | 0.0

Ask | Same thing, different compound: CCCCOCCOCCOCc1cc2c(cc1CCC)OCO2
Reply | 0.0

Ask | Same thing, different compound: COC(=O)c1ccc(I)cc1S(=O)(=O)NC(=O)Nc1nc(C)nc(OC)n1
Reply | 0.0
